Test system: RS4; 11 leukaemia cell line
assayExplanation: In vitro cytotoxicity, Microculture Tetrazolium Assay (MTT)
Assay type: cell-based
assayContext: Homo sapiens, 11 cells exposed for 48 hours
readoutLabel: IC50
Please give the number followed by its unit.

Solved cases (2 shown):
Cc1c(C(=O)N(C)c2ccc(O)cc2)cc(-c2cc3c(cc2C(=O)N2Cc4ccccc4C[C@H]2C)CN(C(=O)Oc2ccc(F)cc2)C3)n1C: 38 nM
Cc1c(C(=O)N(C)c2ccccc2)cc(-c2cc3c(cc2C(=O)N2Cc4ccccc4C[C@H]2C)CN(C(=O)Oc2ccc4[nH]ccc4c2)CC3)n1C: 14 nM

For Cc1c(C(=O)N(C)c2ccccc2)cc(-c2cc3c(cc2C(=O)N2Cc4ccccc4C[C@H]2C)CN(C(=O)Oc2cccc(CCC(=O)N(C)C)c2)CC3)n1C the compound record lists IC50 as 6.2 nM
